biological target: Human ALDH3A1 (Homo sapiens); experiment: ALDH3A1 biochemical assay (benzaldehyde/NADP+, diaphorase-resazurin readout, 1,536-well); conditions: Table S4, biochemical
Sequence (P30838 whole entry): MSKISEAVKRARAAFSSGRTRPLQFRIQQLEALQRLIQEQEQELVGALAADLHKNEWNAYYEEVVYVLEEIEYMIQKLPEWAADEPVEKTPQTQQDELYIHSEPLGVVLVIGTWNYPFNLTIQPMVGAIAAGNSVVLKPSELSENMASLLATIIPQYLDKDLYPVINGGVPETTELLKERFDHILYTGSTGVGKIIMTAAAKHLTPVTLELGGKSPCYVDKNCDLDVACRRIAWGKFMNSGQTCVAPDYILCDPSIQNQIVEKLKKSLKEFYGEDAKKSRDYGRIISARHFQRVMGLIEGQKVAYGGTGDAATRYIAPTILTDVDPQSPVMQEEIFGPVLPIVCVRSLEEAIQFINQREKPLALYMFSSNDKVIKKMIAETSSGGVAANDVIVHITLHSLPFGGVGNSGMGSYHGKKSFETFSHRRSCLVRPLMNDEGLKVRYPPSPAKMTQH
READOUT: Efficacy

Illustrative cases are given below, each with its answer.
smiles_str=Cc1cccc(CNC(=O)c2csc(N3CCN(c4ccccc4Cl)CC3)n2)c1 readout=Efficacy value_reported=-88.53
smiles_str=Cc1cccc(CNC(=O)c2csc(N3CCN(c4ccc(C5(C#N)CCCCC5)cc4)CC3)n2)c1 readout=Efficacy value_reported=-77.35

a. Cc1cccc(CNC(=O)c2csc(N3CCN(c4ccc(OCCF)cc4)CC3)n2)c1
b. COC(=O)c1ccc(N2CCN(c3nc(C(=O)NCc4cccc(C)c4)cs3)CC2)cc1
Prompt line: Identify the item whose Efficacy is the smaller number: a or b Identify your selection by its label.
Response line: b
